# Test system: A498 complex spheroids with HUVEC/MSC, growth
# PROTOCOL: Anticancer human tumor A498 cell line growth inhibition [AhR];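 further: luminescence signal used as a surrogate for viable cells; seven day exposure starting three days after spheroid seeding; luminescence viability scaled so 100% equals DMSO vehicle wells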
# RECORDED_CONDITIONS: second compound 0.316 µM; first compound 0.003 µM; active compounds read low
Catalogue of viability, T/C values
METRIC: viability, T/C (%)

| COMPOUND | MEASUREMENT_TARGET | MEAS_VALUE |
| --- | --- | --- |
| CCc1c2c(nc3ccc(O)cc13)-c1cc3c(c(=O)n1C2)COC(=O)[C@]3(O)CC + Cc1cncc(-c2nc(NCCc3c[nH]c4ccccc34)c3ncn(C(C)C)c3n2)c1 | A498 complex spheroids with HUVEC/MSC, growth | 76 |
| CC(C)CC(NC(=O)C(Cc1ccccc1)NC(=O)c1cnccn1)B(O)O (stereo unspecified) + Cc1cncc(-c2nc(NCCc3c[nH]c4ccccc34)c3ncn(C(C)C)c3n2)c1 | A498 complex spheroids with HUVEC/MSC, growth | 88.7 |
| CC(C)CC(NC(=O)C(Cc1ccccc1)NC(=O)c1cnccn1)B(O)O (stereo unspecified) + Cc1ccccc1N=Nc1ccc(NC(=O)c2ccnn2C)c(C)c1 | A498 complex spheroids with HUVEC/MSC, growth | 102 |
| Nc1ncn(C2CC(O)C(CO)S2)c(=O)n1 (stereo unspecified) + CC(CO)NC(=O)c1cc(-c2ccc(Cl)cc2)nn(-c2cnn(C)c2)c1=O | A498 complex spheroids with HUVEC/MSC, growth | 109 |
| Nc1ncn(C2CC(O)C(CO)S2)c(=O)n1 (stereo unspecified) + Cc1ccccc1N=Nc1ccc(NC(=O)c2ccnn2C)c(C)c1 | A498 complex spheroids with HUVEC/MSC, growth | 101 |
| CCc1c2c(nc3ccc(O)cc13)-c1cc3c(c(=O)n1C2)COC(=O)[C@]3(O)CC + CC(CO)NC(=O)c1cc(-c2ccc(Cl)cc2)nn(-c2cnn(C)c2)c1=O | A498 complex spheroids with HUVEC/MSC, growth | 70.9 |

###

# Test system: A498 complex spheroids with HUVEC/MSC, growth
# PROTOCOL: Anticancer human tumor A498 cell line growth inhibition [AhR];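 further: luminescence signal used as a surrogate for viable cells; seven day exposure starting three days after spheroid seeding; luminescence viability scaled so 100% equals DMSO vehicle wells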
# RECORDED_CONDITIONS: second compound 10 µM; first compound 0.0949 µM; active compounds read low
# Description: Multicellular complex tumor spheroid response to aryl hydrocarbon receptor antagonists in combination with a variety of drugs and investigational agents in selected tumor cell lines […] Compounds. […] If the clinical Cmax for an agent had not been determined, the highest concentration tested was 10 microM (Table 1). […]
# key: entry, value: viability, T/C
METRIC: viability, T/C (%)

| COMPOUND | METRIC | MEAS_VALUE |
| --- | --- | --- |
| O=C(C=Cn1cnc(-c2cc(C(F)(F)F)cc(C(F)(F)F)c2)n1)NNc1cnccn1 + Cc1ccccc1N=Nc1ccc(NC(=O)c2ccnn2C)c(C)c1 | viability, T/C | 37.8 |
| CCc1c2c(nc3ccc(O)cc13)-c1cc3c(c(=O)n1C2)COC(=O)[C@]3(O)CC + CC(CO)NC(=O)c1cc(-c2ccc(Cl)cc2)nn(-c2cnn(C)c2)c1=O | viability, T/C | 29.3 |
| CCc1c2c(nc3ccc(O)cc13)-c1cc3c(c(=O)n1C2)COC(=O)[C@]3(O)CC + Cc1cncc(-c2nc(NCCc3c[nH]c4ccccc34)c3ncn(C(C)C)c3n2)c1 | viability, T/C | 5.73 |
| CC(C)CC(NC(=O)C(Cc1ccccc1)NC(=O)c1cnccn1)B(O)O (stereo unspecified) + CC(CO)NC(=O)c1cc(-c2ccc(Cl)cc2)nn(-c2cnn(C)c2)c1=O | viability, T/C | 2.81 |
| CC(C)CC(NC(=O)C(Cc1ccccc1)NC(=O)c1cnccn1)B(O)O (stereo unspecified) + Cc1cncc(-c2nc(NCCc3c[nH]c4ccccc34)c3ncn(C(C)C)c3n2)c1 | viability, T/C | 0.15 |
| CCc1c2c(nc3ccc(O)cc13)-c1cc3c(c(=O)n1C2)COC(=O)[C@]3(O)CC + Cc1ccccc1N=Nc1ccc(NC(=O)c2ccnn2C)c(C)c1 | viability, T/C | 41.4 |

Origin of values: PubChem BioAssay AID1919007
